What EC50 was measured for each of the following?
# system.under.test: Human CD16A^(48R, 158F) fused to IgG Fc (human) (UniProt P08637)
# Sequence (P08637 17-208 L66R): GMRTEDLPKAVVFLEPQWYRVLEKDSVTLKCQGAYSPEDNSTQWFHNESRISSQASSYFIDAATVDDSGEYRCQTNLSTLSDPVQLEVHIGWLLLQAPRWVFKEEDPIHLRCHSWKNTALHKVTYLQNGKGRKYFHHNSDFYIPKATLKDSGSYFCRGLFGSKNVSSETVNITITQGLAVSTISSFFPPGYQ
# method.description: ELISA, coated antigen-IgG Fc
Numbers only; they are read as nM.

The reported value for scFv CD16A (CD16-3) (scFv) scFv: QVQLVQSGAEVKKPGESLKVSCKASGYTFTNYYMQWVRQAPGQGLEWMGVINPGGGSTSYAQKFQGRVTMTRDTSTSTVYMELSSLRSEDTAVYYCARGSAYYYDFADYWGQGTLVTVSSGGSGGSGGSGGSGGSGGSSYVLTQPSSVSVAPGQTARITCGGHNIGSQSVHWYQQKPGQAPVLVIYQDSKRPSGIPERFSGSNSGNTATLTISGTQAMDEADYYCQVWDNYSVVFGGGTKLTVLAAAGSHHHHHH in terms of EC50 is 1.2

The reported value for scFv CD16A (CD16-4) (scFv) scFv: QVQLVQSGAEVKKPGESLKVSCKASGYSFSDFYIQWVRQAPGQGLEWMGIINPGGASTTYAQKFQGRVTMTRDTSTSTVYMELSSLRSEDTAVYYCARGSAYYYDFADYWGQGTLVTVSSGGSGGSGGSGGSGGSGGSSYVLTQPSSVSVAPGQTARITCGGYNIGRQSVHWYQQKPGQAPVLVIYQDSKRPSGIPERFSGSNSGNTATLTISGTQAMDEADYYCQVWDNYTVVFGGGTKLTVLAAAGSHHHHHH in terms of EC50 is 2.5

The reported value for scFv CD16A (CD16-2) (scFv, also called CD16-2 scFv) scFv: QVQLVQSGAEVKKPGESLKVSCKASGYTFTSYYMHWVRQAPGQGLEWMGAIEPMYGSTSYAQKFQGRVTMTRDTSTSTVYMELSSLRSEDTAVYYCARGSAYYYDFADYWGQGTLVTVSSGGSGGSGGSGGSGGSGGSSYVLTQPSSVSVAPGQTATISCGGHNIGSKNVHWYQQRPGQSPVLVIYQDNKRPSGIPERFSGSNSGNTATLTISGTQAMDEADYYCQVWDNYSVLFGGGTKLTVLAAAGSHHHHHH in terms of EC50 is 2.8

Provenance of the data: patent US20210169936A1
